Values compiled from patent US20050137220A1.

# TGT: MK-2 (Homo sapiens, UniProt P49137)
# Sequence (P49137 whole entry, species assumed): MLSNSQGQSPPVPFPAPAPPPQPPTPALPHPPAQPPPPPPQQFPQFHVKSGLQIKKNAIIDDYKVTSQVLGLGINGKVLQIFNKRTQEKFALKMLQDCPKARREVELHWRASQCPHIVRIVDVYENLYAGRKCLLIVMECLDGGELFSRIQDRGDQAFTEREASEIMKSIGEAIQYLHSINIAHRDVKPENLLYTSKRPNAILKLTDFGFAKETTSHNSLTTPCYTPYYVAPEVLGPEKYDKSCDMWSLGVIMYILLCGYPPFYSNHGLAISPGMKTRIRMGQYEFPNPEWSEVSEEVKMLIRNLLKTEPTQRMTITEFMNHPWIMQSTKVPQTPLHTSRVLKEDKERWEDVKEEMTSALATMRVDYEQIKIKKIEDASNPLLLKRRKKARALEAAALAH
# ASSAY: Determination of MK-2 IC50 (phosphorylation of HSP-peptide, anion exchange resin capture assay)
# Type: biochemical
# CONDITION_DETAILS: additional values are replicate IC50 experiments; mixture of stereoisomers implied unless otherwise noted; read-out: MK-2 Avg. IC50
Where a name gives a salt, the structure may show the parent alone.
MEASUREMENT_TYPE: IC50

In the examples that follow, each entry is paired with its recorded IC50.
INSERT INTO results (compound, measurement) VALUES
  ('COc1ccc2[nH]c3c(c2c1)CCN(C)C3C(N)=O (stereo not shown)', '> 200 µM'),
  ('O=C1NCCc2c1[nH]c1c(Cl)ccc(Cl)c21', '> 200 µM'),
  ('COC(=O)C1NCCc2c1n(C)c1ccc(OC)cc21 (stereo not shown) [Example 209, trifluoroacetate]', '> 200 µM'),
  ('COc1ccc2[nH]c3c(c2c1)C(c1ccccc1)CNC3C(=O)O (stereo not shown) [Example 233]', '> 200 µM');

Reported IC50 for O=C1NCCc2c1[nH]c1cccc(C(=O)N3CCOCC3)c21 was > 200 µM

Reported IC50 for Cc1cccc2c3c([nH]c12)C(C(=O)O)NCC3 (stereo not shown) [Example 215, hydrochloride] was > 200 µM

Reported IC50 for COc1ccc2[nH]c3c(c2c1)CCNC3CN (stereo not shown) [Example 230, trifluoroacetate hydrate] was > 200 µM

Reported IC50 for COC(=O)C1c2[nH]c3ccc(O)cc3c2CCN1C (stereo not shown) [Example 174] was > 200 µM

Reported IC50 for C=CCN1CCc2c([nH]c3ccc(OC)cc23)C1C(=O)OC (stereo not shown) was > 200 µM

Reported IC50 for COC(=O)C1c2[nH]c3ccc(OC)cc3c2CCN1C(C)C (stereo not shown) was > 200 µM
